Values from the METLIN SMRT retention time set (Domingo-Almenara et al. 2019)

- procedureText: gradient 5% acetonitrile 3 min, to 50% in 2 min, to 85% in 15 min, held 3 min, 100 µL/min
- conditionLabel: column: Zorbax Extend-C18 2.1 x 50 mm; eluents: water / acetonitrile, 0.1% formic acid
Each record here notes measured RP-LC retention time.
observable: RP-LC retention time (s)

• O=C(O)C1CCN(S(=O)(=O)c2ccccc2[N+](=O)[O-])CC1 = 701
• Cc1ccc(Cn2c(=O)c(N3CCN(C(=O)NCC4CCCO4)CC3)nc3cccnc32)cc1 (centres undefined) = 935
• COC(=O)c1cc(C)nc2c1c(=O)n(Cc1cccc(F)c1)c(=O)n2C = 973
• O=C(NC1CCCCCC1)C1CCN(C(=O)c2ncn3c2COC(c2ccc(Cl)cc2)C3)CC1 (centres undefined) = 900
• O=C(NCc1csc(C2CCCN(C(=O)C3CCCC3)C2)n1)C1CC1 (centres undefined) = 671
• O=C1NCCCCCN(C(=O)Nc2ccccc2)[C@H]2CCCC[C@@H]12 = 577
• CCN(CC)C(=O)N1CC(c2nc(-c3ccncc3)nn2C)C1 = 566
• Cc1cc(C)n(C(=O)c2ccc(Cl)cc2[N+](=O)[O-])n1 = 927
• COc1cccc(C2Cn3nnc(-c4nc(-c5ccc(C(F)(F)F)cc5)no4)c3CO2)c1 (centres undefined) = 1270
